The reader will find reported pKi values listed item by item below.
biological target: PCSK9 (Homo sapiens, UniProt Q8NBP7); construct: biotin (biotinylated); purchased; assay: PCSK9 Alexa FRET Ultra TR-FRET assay; format: binding
Sequence (Q8NBP7 153-692): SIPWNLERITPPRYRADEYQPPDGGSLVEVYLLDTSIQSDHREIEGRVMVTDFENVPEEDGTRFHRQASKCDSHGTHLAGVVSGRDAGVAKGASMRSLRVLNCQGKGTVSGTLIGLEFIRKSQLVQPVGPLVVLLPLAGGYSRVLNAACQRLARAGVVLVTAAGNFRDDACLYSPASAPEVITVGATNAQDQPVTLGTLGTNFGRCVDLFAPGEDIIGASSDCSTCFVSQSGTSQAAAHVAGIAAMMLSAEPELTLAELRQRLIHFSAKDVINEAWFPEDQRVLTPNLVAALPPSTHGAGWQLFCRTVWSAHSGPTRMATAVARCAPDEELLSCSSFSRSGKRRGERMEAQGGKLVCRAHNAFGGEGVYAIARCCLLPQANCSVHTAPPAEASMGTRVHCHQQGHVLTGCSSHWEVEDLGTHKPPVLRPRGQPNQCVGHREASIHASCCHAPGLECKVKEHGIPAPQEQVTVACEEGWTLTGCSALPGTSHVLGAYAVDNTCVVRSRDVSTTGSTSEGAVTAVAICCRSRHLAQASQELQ
Here pKi is given on a logarithmic scale as minus log10 of the concentration in mol/L.

1) COc1ccc(C[C@@H]2NC(=O)[C@H]([C@@H](C)O)NC(=O)[C@@H]3[C@@H]4CCN3C(=O)[C@@H]3Cc5cn(c6ccc(F)cc56)CCCCCCN(Cc5ccc(cc5)CCNC(=O)[C@]5(C)CCCN5C2=O)C(=O)CCC(=O)N[C@@H](C)C(=O)N[C@H](CNC(=O)COCCOCCNC(=O)CC[C@H](NC(=O)CCOCCOCC[N+](C)(C)CCNC(=O)COCCOCCNC(=O)COCCOCCNC(=O)CC[C@H](NC(=O)CCCCCCCCCCCCCCCCC(=O)O)C(=O)O)C(=O)O)C(=O)N[C@@H](Cc2cccc(c2)CNC(=O)CO4)C(=O)N3)cc1 | 10.85

State, for PCSK9 (Homo sapiens, UniProt Q8NBP7), measured pKi of the compound listed here: COc1ccc(C[C@@H]2NC(=O)[C@H]([C@@H](C)O)NC(=O)[C@@H]3[C@@H]4CCN3C(=O)[C@@H]3Cc5cn(c6ccc(F)cc56)CCCCCCN(Cc5ccc(cc5)CCNC(=O)[C@]5(C)CCCN5C2=O)C(=O)CCC(=O)N[C@@H](C)C(=O)N[C@H](CNC(=O)CCOCCOCC[N+](C)(C)CCNC(=O)COCCOCCNC(=O)COCCOCCNC(=O)CC[C@H](NC(=O)CC[C@H](NC(=O)CCCCCCCCCCCCCCCCC(=O)O)C(=O)O)C(=O)O)C(=O)N[C@@H](Cc2cccc(c2)CNC(=O)CO4)C(=O)N3)cc1 11.22

State, for PCSK9 (Homo sapiens, UniProt Q8NBP7), measured pKi of the compound listed here: COc1ccc(C[C@@H]2NC(=O)[C@H]([C@@H](C)O)NC(=O)[C@@H]3[C@@H]4CCN3C(=O)[C@@H]3Cc5cn(c6ccc(F)cc56)CCCCCCN(Cc5ccc(cc5)CCNC(=O)[C@]5(C)CCCN5C2=O)C(=O)CCC(=O)N[C@@H](C)C(=O)N[C@H](CNC(=O)CC[C@H](NC(=O)CCOCCOCC[N+](C)(C)CCNC(=O)COCCOCCNC(=O)COCCOCCNC(=O)CC[C@H](NC(=O)CCCCCCCCCCCCCCCCC(=O)O)C(=O)O)C(=O)O)C(=O)N[C@@H](Cc2cccc(c2)CNC(=O)CO4)C(=O)N3)cc1 11.10

State, for PCSK9 (Homo sapiens, UniProt Q8NBP7), measured pKi of the compound listed here: COc1ccc(C[C@@H]2NC(=O)[C@H]([C@@H](C)O)NC(=O)[C@@H]3[C@@H]4CCN3C(=O)[C@@H]3Cc5cn(c6ccc(F)cc56)CCCCCCN(Cc5ccc(cc5)CCNC(=O)[C@]5(C)CCCN5C2=O)C(=O)CCC(=O)N[C@@H](C)C(=O)N[C@H](CNC(=O)CCOCCOCC[N+](C)(C)CCNC(=O)COCCOCCNC(=O)COCCOCCNC(=O)CC(CC(=O)O)NC(=O)CC[C@H](NC(=O)CCCCCCCCCCCCCCCCC(=O)O)C(=O)O)C(=O)N[C@@H](Cc2cccc(c2)CNC(=O)CO4)C(=O)N3)cc1 (stereo partly drawn) 11.10

State, for PCSK9 (Homo sapiens, UniProt Q8NBP7), measured pKi of the compound listed here: COc1ccc(C[C@@H]2NC(=O)[C@H]([C@@H](C)O)NC(=O)[C@@H]3[C@@H]4CCN3C(=O)[C@@H]3Cc5cn(c6ccc(F)cc56)CCCCCCN(Cc5ccc(cc5)CCNC(=O)[C@]5(C)CCCN5C2=O)C(=O)CCC(=O)N[C@@H](C)C(=O)N[C@H](CNC(=O)CCCCC[N+](C)(C)CCNC(=O)COCCOCCNC(=O)COCCOCCNC(=O)CC[C@H](NC(=O)CCCCCCCCCCCCCCCCCCC(=O)O)C(=O)O)C(=O)N[C@@H](Cc2cccc(c2)CNC(=O)CO4)C(=O)N3)cc1 11.22

State, for PCSK9 (Homo sapiens, UniProt Q8NBP7), measured pKi of the compound listed here: COc1ccc(C[C@@H]2NC(=O)[C@H]([C@@H](C)O)NC(=O)[C@@H]3[C@@H]4CCN3C(=O)[C@@H]3Cc5cn(c6ccc(F)cc56)CCCCCCN(Cc5ccc(cc5)CCNC(=O)[C@]5(C)CCCN5C2=O)C(=O)CCC(=O)N[C@@H](C)C(=O)N[C@H](CNC(=O)CCCCC[N+](C)(C)CCNC(=O)COCCOCCNC(=O)COCCOCCNC(=O)CC[C@H](NC(=O)CCCCCCCCCCCCCCC(=O)O)C(=O)O)C(=O)N[C@@H](Cc2cccc(c2)CNC(=O)CO4)C(=O)N3)cc1 11.30

State, for PCSK9 (Homo sapiens, UniProt Q8NBP7), measured pKi of the compound listed here: COc1ccc(C[C@@H]2NC(=O)[C@H]([C@@H](C)O)NC(=O)[C@@H]3[C@@H]4CCN3C(=O)[C@@H]3Cc5cn(c6ccc(F)cc56)CCCCCCN(Cc5ccc(cc5)CCNC(=O)[C@]5(C)CCCN5C2=O)C(=O)CCC(=O)N[C@@H](C)C(=O)N[C@H](CNC(=O)CCCCC[N+](C)(C)CCNC(=O)COCCOCCNC(=O)CCCCCCCCCCCCCCCCC(=O)O)C(=O)N[C@@H](Cc2cccc(c2)CNC(=O)CO4)C(=O)N3)cc1 11.15

State, for PCSK9 (Homo sapiens, UniProt Q8NBP7), measured pKi of the compound listed here: COc1ccc(C[C@@H]2NC(=O)[C@H]([C@@H](C)O)NC(=O)[C@@H]3[C@@H]4CCN3C(=O)[C@@H]3Cc5cn(c6ccc(F)cc56)CCCCCN(Cc5ccc(cc5)CCNC(=O)[C@]5(C)CCCN5C2=O)C(=O)CCC(=O)N[C@@H](C)C(=O)N[C@H](CNC(=O)CCOCCOCC[N+](C)(C)CCNC(=O)COCCOCCNC(=O)COCCOCCNC(=O)CC[C@H](NC(=O)CC[C@H](NC(=O)CCCCCCCCCCCCCCCCC(=O)O)C(=O)O)C(=O)O)C(=O)N[C@@H](Cc2cccc(c2)CNC(=O)CO4)C(=O)N3)cc1 11.30

State, for PCSK9 (Homo sapiens, UniProt Q8NBP7), measured pKi of the compound listed here: COc1ccc(C[C@@H]2NC(=O)[C@H]([C@@H](C)O)NC(=O)[C@@H]3[C@@H]4CCN3C(=O)[C@@H]3Cc5cn(c6ccc(F)cc56)CCCCCCN(Cc5ccc(cc5)CCNC(=O)[C@]5(C)CCCN5C2=O)C(=O)CCC(=O)N[C@@H](C)C(=O)N[C@H](CNC(=O)CCOCCOCC[N+](C)(C)CCNC(=O)CC[C@H](NC(=O)CCCCCCCCCCCCCCCCC(=O)O)C(=O)O)C(=O)N[C@@H](Cc2cccc(c2)CNC(=O)CO4)C(=O)N3)cc1 10.89
